# system: PDGF-BB (Homo sapiens, UniProt P01127 P01127:82-190)
# Sequence (P01127 82-190, one chain of several): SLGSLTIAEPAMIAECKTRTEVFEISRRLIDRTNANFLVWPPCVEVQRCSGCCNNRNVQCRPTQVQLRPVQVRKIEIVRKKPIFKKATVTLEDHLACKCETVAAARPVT
# testName: filter; +/-0.011; high affinity component; PBSM, 37 C
# statedConditions: tags: R&D Systems, E. coli; chain copies: 2 (inferred); label: 5'-32P; three-way helix junction
readoutType: pKd
As a rule, pKd stands for the negative log10 of the concentration, concentration in M.

Record TACTCAGGGCACTGCAAGCAATTGTGGTCCCAATGGGCTGAGTAT (ssDNA, 3'-3' linked T at 3' end) [41t] . Reported pKd: 9.89
